meta.source: the Immune Epitope Database (IEDB)

Would you kindly list Kd for each of these sequences?
Biological target: HLA-A*23:01
Experiment: IEDB peptide-MHC binding, purified MHC/competitive/radioactivity; filed as Kd, often an IC50 or EC50 that approximates it; bounds were set here for any values at or beyond the usual limits of such assays
Details: source organism: SARS coronavirus Tor2

Param item = TCDWTNAGDY ; retrieve measured Kd.
≥ 70000 nM

What value of Kd has been recorded for this entry: CKSKNPLLY
≥ 67600 nM

Kd lookup needed for NYMPYVFTL , thanks.
6.37 nM

Reported Kd for LYLYALIYFL : what is it?
22 nM

State the recorded Kd for this entry: QWNLVIGFLF
2.14 nM

Entry DSSQGSEYDY has what Kd?
≥ 70000 nM

# Kd lookup, item SYEHQTPFEI
945 nM

Entry under review: TMADLVYAL . Reported Kd?
6580 nM

* * *

Provide the reported Kd of each item.
Molecular target: HLA-A*02:06
Assay: IEDB peptide-MHC binding, purified MHC/competitive/radioactivity; filed as Kd, often an IC50 or EC50 that approximates it; bounds were set here for any values at or beyond the usual limits of such assays
Conditions: source organism: Vaccinia virus WR

Sample ETVKMGAFM — what was its Kd?
≥ 40.4 µM

What Kd value was documented for this sequence, GIDTSNNIA ?
≥ 25.2 µM

What value of measured Kd is listed for NVKSKLLWFL ?
≥ 31 µM

Suppose we examine the sequence DVNEEYTEAA ; what Kd value has been reported?
≥ 59.2 µM

// Kd lookup, key: ETNIGCAVNT
≥ 69.8 µM

Quick check: Kd of GIRCVSNLDI ?
≥ 32.9 µM

Field request: Kd | item: VIRNEVNDT
≥ 77.1 µM

Query: Kd; subject: NTLIQYRQQL
≥ 20.9 µM

* * *

Target: HLA-A*24:02
Test: IEDB peptide-MHC binding, purified MHC/competitive/radioactivity; filed as Kd, often an IC50 or EC50 that approximates it; bounds were set here for any values at or beyond the usual limits of such assays
Settings: source organism: SARS coronavirus Tor2
Kindly state pKd for each of the entries shown.
pKd is a log-scale quantity: -log10 of the concentration expressed in molar.

What reported pKd corresponds to LYYPSARIVY on HLA-A*24:02?
5.69

Find the measured pKd: item ATVAYFNMVY , target or system HLA-A*24:02.
4.89

API: value(readout= pKd, system= HLA-A*24:02, query= QWNLVIGFLF )
8.25

Kindly state the measured pKd obtained for TMADLVYAL with HLA-A*24:02.
5.00

* * *

Target: HLA-A*02:03
Assay: IEDB peptide-MHC binding, purified MHC/competitive/radioactivity; filed as Kd, often an IC50 or EC50 that approximates it; bounds were set here for any values at or beyond the usual limits of such assays
Details: source organism: Vaccinia virus WR
Label 1.0 when Kd is strictly below 200 nM; otherwise label 0.0.

Consider the sequence ETNIGCAVNT . Is its Kd strictly less than 200 nM?
0.0

Criterion: Kd strictly below 200 nM. Is it met by GIDTSNNIA ?
0.0

# check: Kd < 200 nM for GLESIEQNLT
0.0

Given the entry PTWLGAAITL , would its reported Kd be below 200 nM?
0.0

Strictly below 200 nM: is that where Kd of YTVEFDRDKV sits?
1.0

State whether 200 nM exceeds Kd recorded for ITGNKVKTEL .
0.0

Consider the sequence VIPDELIDVL . Is its Kd strictly less than 200 nM?
0.0

Quick check: Kd of AVTLNRIKIA under 200 nM?
0.0

A record lists YVNAILYQI . Is its Kd below 200 nM?
0.0

Given KVEKYLPEVI , is recorded Kd strictly lower than 200 nM?
0.0

Would you kindly verify if Kd of SIISLFYTFA is strictly less than 200 nM?
1.0

Strictly below 200 nM: is that where Kd of FLPQIGGEA sits?
1.0

Confirm or reject: Kd of VIRNEVNDT lies strictly below 200 nM
0.0

Strictly below 200 nM in Kd? FIDRGSIKI
0.0

Lab note: Kd threshold 200 nM. Does this sequence come in strictly under it? RLRQDTEDI
0.0

Is Kd strictly under 200 nM for the entry ALCKVTVPT ?
1.0

Decide: Kd of QMAGVEVRYI strictly below 200 nM?
1.0

Lab note: Kd threshold 200 nM. Does this sequence come in strictly under it? ETDDDGNYPL
0.0

Lab log: compare recorded Kd with 200 nM; is it strictly lower for DVLPFDIKYI ?
1.0

Please state whether Kd is below 200 nM for LLNETAKVI
1.0

Hello, is Kd of the following sequence strictly smaller than 200 nM? IIAVFDSKLI
0.0

I'd appreciate it if you could check whether IISTDQDTML has Kd smaller than 200 nM.
0.0

State whether 200 nM exceeds Kd recorded for QIYLSDSDNI .
0.0

In plain terms, does NVKSKLLWFL come in under 200 nM for Kd?
0.0

Criterion: Kd strictly below 200 nM. Is it met by RQDYRRSINV ?
0.0

Kd under 200 nM? Item: TLLIKTLSPA
1.0

Hello, I'm reviewing records and need to know if Kd of TLLNETAKVI is below 200 nM. Could you check?
0.0

Quick check: Kd of CTINVNSLA under 200 nM?
0.0

Determine if SMKGENVFI shows Kd strictly lower than 200 nM.
1.0

Decide: Kd of AAVTLNRIKI strictly below 200 nM?
0.0

Dear reviewer, please state whether VLTILYYGA has Kd strictly beneath 200 nM.
1.0

In plain terms, does ETVKMGAFM come in under 200 nM for Kd?
0.0

Just wondering, is Kd of SIGFEARIV below 200 nM?
0.0
